# assayed_target: recombinant alpha-glucosidase I (human full-length glucosidase I, Glu 1) (Homo sapiens)
# Construct: 6-His (C); made in house; host or cells: HEK-293T cells transduced with BacMam virus (virus raised in Sf9)
# Sequence (Q13724 whole entry): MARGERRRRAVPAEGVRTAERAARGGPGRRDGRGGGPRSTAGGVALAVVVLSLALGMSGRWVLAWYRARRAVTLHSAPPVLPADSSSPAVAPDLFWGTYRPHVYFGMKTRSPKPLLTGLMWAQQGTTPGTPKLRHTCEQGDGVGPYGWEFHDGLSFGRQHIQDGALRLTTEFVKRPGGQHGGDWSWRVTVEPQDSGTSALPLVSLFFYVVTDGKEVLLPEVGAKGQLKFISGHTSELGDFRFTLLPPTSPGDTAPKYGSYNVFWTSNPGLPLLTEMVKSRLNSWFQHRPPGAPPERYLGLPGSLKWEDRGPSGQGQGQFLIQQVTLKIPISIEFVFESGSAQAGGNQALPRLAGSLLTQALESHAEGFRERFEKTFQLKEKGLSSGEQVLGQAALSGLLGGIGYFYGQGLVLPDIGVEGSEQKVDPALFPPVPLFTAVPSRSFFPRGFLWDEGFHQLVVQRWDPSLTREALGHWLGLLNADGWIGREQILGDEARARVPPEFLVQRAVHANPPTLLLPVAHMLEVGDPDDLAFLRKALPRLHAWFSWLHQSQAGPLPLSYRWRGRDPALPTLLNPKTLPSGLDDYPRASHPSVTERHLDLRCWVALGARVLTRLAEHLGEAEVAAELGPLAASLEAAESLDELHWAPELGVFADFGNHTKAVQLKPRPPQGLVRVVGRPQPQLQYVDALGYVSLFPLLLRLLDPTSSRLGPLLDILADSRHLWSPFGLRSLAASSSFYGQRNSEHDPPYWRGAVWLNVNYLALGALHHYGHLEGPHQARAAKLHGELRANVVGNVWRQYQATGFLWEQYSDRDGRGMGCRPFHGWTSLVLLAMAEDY
# assay: Alpha-glucosidase I assay (Amplex Red glucose detection, synthetic trisaccharide substrate)
# Format: biochemical
# condition_set: Glucosidase 1; read-out: Glu 1 IC50
readout_kind: pIC50
Quick note: pIC50 means taking -log10 of the concentration in moles per liter.

// known answers, use as guide
[N-]=[N+]=Nc1ccc(NCCOC(=O)NCCN2C[C@H](O)[C@@H](O)[C@H](O)[C@H]2CO)c([N+](=O)[O-])c1 ... 5.70
N#Cc1cc(Cl)cc(NCCc2ccc(CCN3C[C@H](O)[C@@H](O)[C@H](O)[C@H]3CO)cc2)c1 ... 6.19
OC[C@@H]1[C@@H](O)[C@H](O)[C@@H](O)CN1CCc1ccc(CCNc2cc(Cl)cc(-c3ncccn3)c2)cc1 ... 6.29
O=[N+]([O-])c1cc(N2CCOCC2)ccc1NCc1ccc(CN2C[C@@H](O)[C@H](O)[C@@H](O)[C@@H]2CO)cc1 (stereo in doubt) ... 7.66

Task: Field request: pIC50 | item: OC[C@@H]1[C@@H](O)[C@H](O)[C@@H](O)CN1Cc1cccc(CNc2ccc(-c3cccnn3)cc2)c1
Output: 7.14
